Biological target: Aryl hydrocarbon receptor (Homo sapiens) (UniProt P35869)
Sequence (P35869 whole entry, looked up): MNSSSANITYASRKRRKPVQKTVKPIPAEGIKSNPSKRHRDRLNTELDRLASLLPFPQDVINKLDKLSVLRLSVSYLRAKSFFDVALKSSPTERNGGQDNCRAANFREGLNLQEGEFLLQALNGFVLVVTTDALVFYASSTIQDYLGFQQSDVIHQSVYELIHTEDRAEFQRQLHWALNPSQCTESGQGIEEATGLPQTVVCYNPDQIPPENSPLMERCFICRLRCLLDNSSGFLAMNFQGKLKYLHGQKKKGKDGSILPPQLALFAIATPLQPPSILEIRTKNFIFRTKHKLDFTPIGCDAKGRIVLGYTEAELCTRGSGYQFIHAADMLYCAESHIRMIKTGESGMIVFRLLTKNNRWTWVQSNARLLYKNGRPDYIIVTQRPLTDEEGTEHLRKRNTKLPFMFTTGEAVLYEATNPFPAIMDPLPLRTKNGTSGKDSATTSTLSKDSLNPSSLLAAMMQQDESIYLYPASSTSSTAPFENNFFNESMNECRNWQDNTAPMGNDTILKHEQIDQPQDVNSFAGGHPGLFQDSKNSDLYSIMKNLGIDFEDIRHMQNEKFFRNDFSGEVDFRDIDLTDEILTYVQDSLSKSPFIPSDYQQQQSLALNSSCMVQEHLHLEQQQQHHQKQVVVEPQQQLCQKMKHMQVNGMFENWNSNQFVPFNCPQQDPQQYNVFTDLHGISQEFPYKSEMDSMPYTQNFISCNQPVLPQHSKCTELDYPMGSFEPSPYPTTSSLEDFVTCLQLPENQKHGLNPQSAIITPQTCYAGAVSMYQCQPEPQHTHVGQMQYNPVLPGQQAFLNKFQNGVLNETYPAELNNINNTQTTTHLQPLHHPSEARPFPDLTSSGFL
Assay: qHTS assay to identify small molecule that activate the aryl hydrocarbon receptor (AhR) signaling pathway (AID 743085); further: nearly all actives have a fitted effect of over 15% in size;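 on activation: HG2L7.5c1 human HepG2 liver cells with stably integrated DRE-driven firefly reporter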
Settings: HepG2 AhR-luc (HG2L7.5c1), luciferase, 24 h; series mostly up to 70.3 µM
Text: U.S. Tox21 Program National Center for Advancing Translational Sciences [NCATS] NIH Chemical Genomics Center [NCGC] U.S. Environmental Protection Agency [EPA] National Institutes of Environmental Health Sciences [NIEHS] National Toxicology Program [NTP] U.S. Food and Drug Administration [FDA] Tox21 Assay overview: The Aryl hydrocarbon Receptor (AhR), a member of the family of basic helix-loop-helix transcription factors, is crucial to adaptive responses to environmental changes. […]
Inconclusive results are not listed. Calls of active or inactive are those of the source. The call rests on the fitted dose curve; in most records, active means well fitted activation curve with a large enough effect in the repeat runs; inconclusive means weak or mixed curves; inactive means no such curve, though single readings can be large or run the other way.
Form entry, call: pick from y (active), n (inactive)

Sample answers from the record:
>  <compound>
N#CCc1ccccc1

>  <assignedCategory>
n

$$$$
>  <compound>
O=C(NC(=O)c1c(F)cccc1F)Nc1ccc(OC(F)(F)C(F)OC(F)(F)F)c(Cl)c1 (centres undefined)

>  <assignedCategory>
n

$$$$
>  <compound>
CCOC(=O)C(Cl)C(C)=O (centres undefined)

>  <assignedCategory>
n

$$$$
>  <compound>
CC(C)(OO)c1ccccc1

>  <assignedCategory>
n

$$$$
>  <compound>
C[N+](C)(C)CCCl

>  <assignedCategory>
n

$$$$

Exercise: Assay outcome for NC(=O)CI : what was it?
Solution: n

Exercise: For CC(Cl)C(C)Cl (centres undefined) , what call appears in the results of this test?
Solution: n

Exercise: Look up the recorded call for C=C(C#N)CCC#N in this test.
Solution: n

Exercise: Just curious, what result did CCN(C)N=O get here?
Solution: n

Exercise: For CCCCCCCCCC(=O)O[C@H]1CC[C@H]2[C@@H]3CCC4=CC(=O)CC[C@@H]4[C@H]3CC[C@]12C , what call appears in the results of this test?
Solution: n

Exercise: Returns: the outcome recorded for CCOS(C)(=O)=O in this assay.
Solution: n

Exercise: Called result for OC(c1ccc(Cl)cc1)(c1ccc(Cl)cc1)c1cccnc1
Solution: n

Exercise: Hi, sorry to bother you, what did the test record for [O-][Cl+]O ?
Solution: n

Exercise: So what was the verdict on II in this test?
Solution: n

Exercise: Record lookup: outcome of this test for ClP(Cl)(Cl)(Cl)Cl ?
Solution: n

Exercise: Write down the call the test reported for this compound. Item: Clc1cc(Cl)c(Cl)c(Cl)c1
Solution: n

Exercise: GET /call?item= NC(=O)C(Cl)(Cl)Cl returns the recorded outcome of this test.
Solution: n

Exercise: Hi team, can someone confirm the assay call for O=C(N[C@H](c1ccccc1)[C@@H]1CN2CCC1CC2)c1c(Cl)ccc(C(F)(F)F)c1Cl ?
Solution: n

Exercise: Query: recorded result category for COP(=S)(OC)Oc1cc(Cl)c(I)cc1Cl in this test
Solution: y
